Target: human Nav1.5 channels stably expressed in HEK 293 cells (Homo sapiens, UniProt Q14524)
Construct: expressed in transfected cells
Sequence (Q14524 whole entry): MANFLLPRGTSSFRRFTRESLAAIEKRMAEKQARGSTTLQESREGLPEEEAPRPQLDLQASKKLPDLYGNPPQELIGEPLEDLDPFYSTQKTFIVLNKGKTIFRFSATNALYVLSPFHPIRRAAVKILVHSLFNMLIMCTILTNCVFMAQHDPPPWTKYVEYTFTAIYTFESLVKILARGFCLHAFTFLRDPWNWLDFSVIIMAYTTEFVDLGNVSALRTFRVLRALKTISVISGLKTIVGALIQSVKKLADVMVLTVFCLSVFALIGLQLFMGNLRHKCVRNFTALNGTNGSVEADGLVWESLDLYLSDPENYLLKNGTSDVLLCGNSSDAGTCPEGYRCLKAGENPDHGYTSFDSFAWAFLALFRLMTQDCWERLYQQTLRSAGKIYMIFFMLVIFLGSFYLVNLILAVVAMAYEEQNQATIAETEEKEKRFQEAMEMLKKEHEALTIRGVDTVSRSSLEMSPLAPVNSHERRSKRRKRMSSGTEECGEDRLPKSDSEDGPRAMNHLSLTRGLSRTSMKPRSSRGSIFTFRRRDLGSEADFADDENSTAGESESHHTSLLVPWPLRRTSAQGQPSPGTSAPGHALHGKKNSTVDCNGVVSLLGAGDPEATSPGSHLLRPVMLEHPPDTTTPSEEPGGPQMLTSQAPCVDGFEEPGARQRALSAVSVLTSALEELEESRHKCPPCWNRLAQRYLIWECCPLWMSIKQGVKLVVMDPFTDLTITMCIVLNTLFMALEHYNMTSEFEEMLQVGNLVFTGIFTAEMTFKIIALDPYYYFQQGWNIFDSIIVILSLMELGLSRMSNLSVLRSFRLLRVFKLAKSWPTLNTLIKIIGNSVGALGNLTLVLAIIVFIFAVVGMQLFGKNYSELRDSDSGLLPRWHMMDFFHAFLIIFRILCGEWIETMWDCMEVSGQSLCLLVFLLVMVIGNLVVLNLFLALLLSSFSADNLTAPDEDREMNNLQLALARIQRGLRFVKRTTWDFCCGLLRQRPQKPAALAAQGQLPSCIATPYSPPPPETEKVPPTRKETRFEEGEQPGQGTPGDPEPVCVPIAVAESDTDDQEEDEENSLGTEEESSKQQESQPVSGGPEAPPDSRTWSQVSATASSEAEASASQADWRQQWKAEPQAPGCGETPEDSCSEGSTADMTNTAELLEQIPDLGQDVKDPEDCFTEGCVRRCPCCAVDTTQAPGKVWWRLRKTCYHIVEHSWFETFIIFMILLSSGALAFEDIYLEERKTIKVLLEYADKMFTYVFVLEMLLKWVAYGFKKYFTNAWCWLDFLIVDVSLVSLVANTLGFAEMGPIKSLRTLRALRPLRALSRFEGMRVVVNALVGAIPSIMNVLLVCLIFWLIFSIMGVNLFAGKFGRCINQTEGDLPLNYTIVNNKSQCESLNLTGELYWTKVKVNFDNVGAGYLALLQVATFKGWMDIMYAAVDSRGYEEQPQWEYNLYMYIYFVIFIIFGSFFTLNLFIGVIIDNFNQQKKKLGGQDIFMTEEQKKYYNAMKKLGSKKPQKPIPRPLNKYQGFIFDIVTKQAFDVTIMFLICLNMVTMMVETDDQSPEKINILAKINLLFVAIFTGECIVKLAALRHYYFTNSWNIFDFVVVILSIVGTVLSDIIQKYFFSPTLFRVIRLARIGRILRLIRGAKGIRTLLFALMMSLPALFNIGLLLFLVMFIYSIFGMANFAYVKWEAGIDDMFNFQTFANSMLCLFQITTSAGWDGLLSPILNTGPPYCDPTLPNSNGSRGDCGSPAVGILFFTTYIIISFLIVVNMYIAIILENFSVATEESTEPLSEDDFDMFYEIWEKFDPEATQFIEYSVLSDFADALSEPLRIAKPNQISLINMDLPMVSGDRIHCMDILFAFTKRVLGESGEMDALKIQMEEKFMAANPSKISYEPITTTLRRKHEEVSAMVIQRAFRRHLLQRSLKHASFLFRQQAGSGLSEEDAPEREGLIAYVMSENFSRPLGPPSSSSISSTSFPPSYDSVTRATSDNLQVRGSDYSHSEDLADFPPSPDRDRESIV
Test: PatchXpress 7000 automated patch-clamp, sodium current
Type: cell-based
Details: selectivity over Nav1.5
Lab note - cut at 1000 for ratio of Nav 1.5:Nav 1.7 potency, determined by PatchXpress measurement: true if strictly below, false if not.

INSERT INTO assay_data (compound, category) VALUES
  ('C[C@@H](c1ccccc1)n1c(=O)oc2cc(S(=O)(=O)Nc3ncns3)c(F)cc21', 'true'),
  ('C[C@H](c1ccccc1C#CCNS(C)(=O)=O)n1c(=O)oc2cc(S(=O)(=O)Nc3ncns3)c(Br)cc21', 'true'),
  ('NC1CCc2cccc(Cn3c(=O)oc4cc(S(=O)(=O)Nc5ncns5)c(F)cc43)c2C1 (single isomer, unassigned) [Compound 23-27]', 'true'),
  ('NC/C=C/c1cc(Cl)ccc1Cn1c(=O)oc2cc(S(=O)(=O)Nc3ncns3)ccc21', 'true'),
  ('C[C@H](c1ccccc1C#CCC(C)(C)N)n1c(=O)oc2cc(S(=O)(=O)Nc3ncns3)c(F)cc21', 'false'),
  ('C[C@H](c1ccccc1C1=CCNCC1)n1c(=O)oc2cc(S(=O)(=O)Nc3ncns3)c(Cl)cc21.Cl', 'false');
